B1: tRNA (parent)
chain: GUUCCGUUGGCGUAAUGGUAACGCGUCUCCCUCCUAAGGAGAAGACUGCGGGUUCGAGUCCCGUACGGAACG

- Variants of: B1
- protocol-text: yeast fitness relative to wild type (ratio to wild type); higher = fitter; tRNA-Arg(CCU), competitive growth, 37 C, YPD
Fewer inactive variants are shown than the library holds.
Reported yeast fitness values follow for various variants

Some variants with recorded yeast fitness:
residue-string	yeast fitness
GUUUCGUUGGCGUAAUGGUAACGCGUGUCCCUUCUAAGGAGAAGACUGCGGGUUCGGGUCCCGUACGGAACG [C4U C27G C33U A57G]	≤ 0.5
GUUCCGUUGGCGUAAUGGUGACGCGUCUCCCUCCUACGAAGAAGACUGCGGGUUCGAGUCCCGUUCGGACCG [A20G A37C G39A A65U A70C]	≤ 0.5
GUUCCGUCGGCGUAAUGGUACCGCGUUUCCCUCCUAAGGAGAAGACUGUGGGUUCGACUCACGUUCGGAACG [U8C A21C C27U C49U G58C C61A A65U]	≤ 0.5
GUUCCGUUGGCGUAAUGAUAACGCAUCUCCCUCCUAAGGAGAAGAUUGCGGGUUCGAGCCCCGUACGAAACG [G18A G25A C46U U59C G68A]	≤ 0.5
GUUCCGUUGGGGUAAUGGAAAGGCGUCUCCCUCCUAAGGAGAAGACUGCGGGUUCGAGUCCCGUACGCAACG [C11G U19A C22G G68C]	≤ 0.5

Problem: # get_value(readout='yeast fitness', item= GUUCCGUAGGCGUAAUGAUAACGCGUCUCGCUCCUAAGGCGAAGACCGCGGAUUCGAGUCCCGUACGGAACG [U8A G18A C30G A40C U47C G52A] )
Result: ≤ 0.5

Problem: Param item: GUUCCGUUGGCGUUGUGGUAACGCGUCUCCCUUCUAAGGAGCAGACUGCGGGUUCGAGUCCCGUACGGAACG [A14U A15G C33U A42C]
Result: ≤ 0.5

Problem: Try GCUCCGUUGGCGUAAUGAUAACGCAUCUCCCUCCUAAGGAGAAGACUGCGGGUUCGAGUCCCGUAUGGAACG [U2C G18A G25A C66U] next.
Result: ≤ 0.5

Problem: And for GUUCCGUUGGCGUAAUGGUAACGCGUCUCCCUCCUAAGGAGCAGACUGCGGGAACGAGUCCCGUACGGAACG [A42C U53A U54A] ?
Result: ≤ 0.5

Problem: Try this variant next: GUUCCGUUGGCGUAAUCGUAACGCGUCUCCCUCCUAAGCAGAAGACUGCGGGUUCGAGUCCCAUACGGAACG [G17C G39C G63A]
Result: ≤ 0.5

Problem: Query GUUCCAUUGGCGUAAUGGUAACGGGUCUCCCUCCUAAGCAGAAGACUGCGGGUUCGAGUCUCGUAUGGAACG [G6A C24G G39C C61U C66U] next
Result: ≤ 0.5

Problem: What would you report for GUUACGUUGGCGUAACAGUAACGCGUCUCCCUCCUAAGGAGAAGACUGCGGGUUCGAGACCCGUACGGAACG [C4A U16C G17A U59A] ?
Result: ≤ 0.5

Problem: Now try GUUCCGUUGGCGUAAUGGUAUCGCGUCUCCCUCCUAAGGAGAAGACUGCGGGUUCGUGUACCGUACGCAACG [A21U A57U C60A G68C] .
Result: ≤ 0.5

Problem: Another variant to look at: GUUCCGUCGGCGUAAUGGUAACGCGUCUCCCUCCUAAGCAGAAGACCGCGGGUUCGAGUAGCGUACGGUACG [U8C G39C U47C C60A C61G A69U]
Result: ≤ 0.5

Problem: For GUUCCGUUGGCGUAAUGGUAACGCGUCUCCCUCCUAAGGAGAAGACUGCGAGUUCGAGUCCCUUAAGGAACG [G51A G63U C66A] then?
Result: ≤ 0.5

Problem: Quick one: GUUCCGUUGCCGUAGUGGUAACGCGUGUCCCUCCUAAGGAGAAGACUGCGGGUUCGAGUCCCGUACGGAACG [G10C A15G C27G]
Result: 0.695

Problem: Try GUUCCGUUGGCGUAAUGGUAACGCGUCUCCCUCCUAAGGAGAAGACUGCGGGUUCGAGUCUCGUAUGGAACG [C61U C66U] next.
Result: 0.929

Problem: Another variant: GUACCGUUGGCGUAAUGGUAACGCGUCUCCCUCCUAAGGCGAAGACUGCGGGUUCGAGUCCGGUACGCAACG [U3A A40C C62G G68C]
Result: ≤ 0.5

Problem: Follow-up entry: GUUCCGUUGGCGUAAUGGUAACGCGUCUCCCUCCUAAGGAGAAGACUGCGGGUUCGAGUCACGUACGGACCG [C61A A70C]
Result: 0.694

Problem: And for GUUCCGUUGGUGUAAUGGUAACGCGACUCCCUCCUUAGGAGAAGACUGCGGGUUCGAGUCCCGUACGGAACG [C11U U26A A36U] ?
Result: ≤ 0.5

Problem: Let us now turn to GUUCCGUUGGCGUAAUGGUAACGCGUCUCCCUCCUAAGGAGAAGACGGCGGGUUCGAGUCCGGUACGAAACG [U47G C62G G68A]
Result: 0.525

Problem: Then this variant: GUUCGGUUGGCGUAAUGGUAACGCAUCUCCCUCCUAAGGAGAAGACUACGGGUUCGAGUCCCGUACGGAACG [C5G G25A G48A]
Result: 0.724
